Source of measurements: ChEMBL document CHEMBL1201862

- tgt: Cytochrome P450 3A4 (Homo sapiens)
- Sequence (P08684 whole entry): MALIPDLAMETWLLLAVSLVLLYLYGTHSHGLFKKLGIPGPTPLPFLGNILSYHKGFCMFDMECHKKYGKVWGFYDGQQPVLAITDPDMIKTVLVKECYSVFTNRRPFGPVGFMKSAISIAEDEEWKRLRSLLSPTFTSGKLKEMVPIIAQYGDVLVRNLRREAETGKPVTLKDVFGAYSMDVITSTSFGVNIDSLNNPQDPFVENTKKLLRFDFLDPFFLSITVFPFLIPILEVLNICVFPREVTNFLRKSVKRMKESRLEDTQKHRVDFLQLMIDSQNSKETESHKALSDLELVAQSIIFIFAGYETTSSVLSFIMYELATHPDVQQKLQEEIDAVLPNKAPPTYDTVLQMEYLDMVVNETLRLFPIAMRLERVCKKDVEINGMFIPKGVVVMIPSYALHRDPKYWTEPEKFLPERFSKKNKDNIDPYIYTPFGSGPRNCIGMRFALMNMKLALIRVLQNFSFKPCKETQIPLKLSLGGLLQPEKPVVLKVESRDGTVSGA
- measurement_conditions: Potency
# AC50 values compiled below

[
  {
    "compound": "CCCn1c(C)nc2c(N(CCN(C)C)Cc3ccccc3)nc(C)nc21",
    "tgt": "Cytochrome P450 3A4 (Homo sapiens)",
    "AC50": "12.6 µM (inconclusive)"
  },
  {
    "compound": "C=CC(C1=CC(=O)C(OC)=C(OC)C1=O)c1ccccc1 (stereo unspecified)",
    "tgt": "Cytochrome P450 3A4 (Homo sapiens)",
    "AC50": "15.8 µM (inconclusive)"
  },
  {
    "compound": "CCC1=C(OC(=O)N(CC)CC)N2C(=O)O/C(=N\\CCOC)[C@]2(C)[C@H]2C1=CC[C@H]1C(=O)NC(=O)[C@H]12",
    "tgt": "Cytochrome P450 3A4 (Homo sapiens)",
    "AC50": "10 µM (inconclusive)"
  }
]

Q) Using the record for C/C=C/C1Oc2ccc(OC)cc2N2C(=O)C(C)C(OCOC)C12 (stereo unspecified) , state its measured AC50.
A) 3.98 µM (inconclusive)

Q) # return recorded AC50 for input `Clc1ccc2c(c1)C(N1CCNCC1)=Nc1ccccc1O2`
A) 10 µM (inconclusive)

Q) Look up and report measured AC50 for this entry: `C=CCNC(=O)c1cc([N+](=O)[O-])cc2c(=O)[nH]c(Nc3ccc(Cl)c(Cl)c3)nc12`
A) 10 µM (inconclusive)

###

- test_details: Luminescence Cell-Based Dose Response HTS to Identify Inhibitors of 5'UTR Stem-Loop Driven Prion Protein mRNA Translation in H4 Neuroglioblastoma Cells. [Related pubchem assays: 1827 (Project Summary), 1813 (Primary HTS)]
- Assay type: functional
Activity calls are given as the source filed them.
measurement_label: EC50

[
  {
    "compound": "CCCNC(=O)c1ccc(N2CCC3(CC2)CC(c2ccccc2)=NO3)c(NC(=O)c2ccccc2)c1",
    "EC50": "> 120 µM (not active)"
  },
  {
    "compound": "Cc1ccsc1C(=O)OCC(=O)c1cc(C)n(CC2CCCO2)c1C (centres undefined)",
    "EC50": "0.325 µM (active)"
  },
  {
    "compound": "OCc1cccc[n+]1CCc1ccccc1",
    "EC50": "48.4 µM (active)"
  }
]

Proceed to the following item.
Q) State, in one line, measured EC50 of `CCc1nnc(S)n1/N=C/c1c(C)nn(-c2ccccc2)c1Cl`
A) 19 µM (active)

###

- tgt: Rac GTPase-activating protein 1 (Homo sapiens, UniProt Q9H0H5)
- Sequence (Q9H0H5 whole entry): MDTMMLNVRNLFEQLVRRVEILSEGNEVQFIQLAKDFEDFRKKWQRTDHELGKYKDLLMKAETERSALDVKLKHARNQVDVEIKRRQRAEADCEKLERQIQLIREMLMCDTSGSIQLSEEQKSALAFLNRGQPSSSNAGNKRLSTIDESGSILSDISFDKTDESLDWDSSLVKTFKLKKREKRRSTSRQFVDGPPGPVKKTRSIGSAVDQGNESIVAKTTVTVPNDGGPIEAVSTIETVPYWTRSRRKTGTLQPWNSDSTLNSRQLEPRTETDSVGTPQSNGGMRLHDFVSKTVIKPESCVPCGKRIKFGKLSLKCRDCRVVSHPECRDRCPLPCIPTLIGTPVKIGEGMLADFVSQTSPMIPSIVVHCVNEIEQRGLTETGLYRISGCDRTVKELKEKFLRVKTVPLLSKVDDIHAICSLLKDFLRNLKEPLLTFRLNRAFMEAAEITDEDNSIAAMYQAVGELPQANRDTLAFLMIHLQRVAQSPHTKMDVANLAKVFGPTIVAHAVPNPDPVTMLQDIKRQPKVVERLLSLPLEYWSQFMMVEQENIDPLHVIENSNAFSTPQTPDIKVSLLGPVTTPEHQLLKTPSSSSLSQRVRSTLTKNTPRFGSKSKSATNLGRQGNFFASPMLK
- test_details: blockers of MgcRacGAP-driven Rac1 GTP hydrolysis – biochemical, ADP Hunter fluorescence, primary and confirmatory, confirmation (AID 624330)
- Type: functional
Activity calls are given as the source filed them.
Below, each entry is listed alongside its reported IC50.

Take a look at these entries with their results.
[
  {
    "compound": "COc1ccc(C)cc1NC(=O)C(NCC(O)c1ccccc1)c1ccccc1 (stereo not drawn)",
    "IC50": "96.8 µM (active)"
  },
  {
    "compound": "COc1cc(/C=N\\NC(=O)C2CC3C=CC2C3)ccc1O (stereo not drawn)",
    "IC50": "23.4 µM (active)"
  },
  {
    "compound": "COc1cc(/C=N/NC(=O)c2ccoc2C)ccc1O",
    "IC50": "27.3 µM (active)"
  },
  {
    "compound": "COc1ccccc1Nc1ccc2c(O)cc(S(=O)(=O)O)cc2c1",
    "IC50": "90.4 µM (active)"
  }
]

Q) # return recorded IC50 for entry `O=C1C=CC(=O)N1c1ccc(Nc2ccccc2)cc1`
A) 27 µM (active)

Q) Report measured IC50; entry is `O=C(CN1CCN(C2CCCCC2)CC1)Nc1ccccc1-c1ccccc1`
A) 78.1 µM (active)
